Biological target: PRMT5/MEP50 (Homo sapiens, UniProt O14744)
Construct: Expressed full-length human Flag-PRMT5/6His-MeP50 protein complex was purified; made in house; host or cells: Spodoptera frugiperda (SF9) insect cells, baculovirus (pDEST8)
Sequence (O14744 with tags, fused parts or gaps): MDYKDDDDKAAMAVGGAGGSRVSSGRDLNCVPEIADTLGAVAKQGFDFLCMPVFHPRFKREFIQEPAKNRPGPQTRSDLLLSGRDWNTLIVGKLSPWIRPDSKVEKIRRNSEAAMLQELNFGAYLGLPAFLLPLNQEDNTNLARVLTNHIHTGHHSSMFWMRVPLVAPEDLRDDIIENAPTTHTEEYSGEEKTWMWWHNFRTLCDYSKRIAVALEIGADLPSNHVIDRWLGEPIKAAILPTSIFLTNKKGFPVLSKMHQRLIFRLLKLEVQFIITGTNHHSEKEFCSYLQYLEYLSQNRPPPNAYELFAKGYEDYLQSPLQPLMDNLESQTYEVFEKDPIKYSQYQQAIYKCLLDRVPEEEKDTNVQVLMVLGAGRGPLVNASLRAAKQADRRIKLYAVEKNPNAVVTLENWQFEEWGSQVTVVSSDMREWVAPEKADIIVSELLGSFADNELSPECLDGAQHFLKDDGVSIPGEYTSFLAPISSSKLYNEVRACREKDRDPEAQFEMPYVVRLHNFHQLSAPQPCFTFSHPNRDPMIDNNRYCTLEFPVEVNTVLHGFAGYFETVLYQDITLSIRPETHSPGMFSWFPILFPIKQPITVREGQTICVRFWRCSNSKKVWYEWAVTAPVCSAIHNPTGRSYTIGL
Sequence (Q9BQA1 with tags, fused parts or gaps partner limits assumed): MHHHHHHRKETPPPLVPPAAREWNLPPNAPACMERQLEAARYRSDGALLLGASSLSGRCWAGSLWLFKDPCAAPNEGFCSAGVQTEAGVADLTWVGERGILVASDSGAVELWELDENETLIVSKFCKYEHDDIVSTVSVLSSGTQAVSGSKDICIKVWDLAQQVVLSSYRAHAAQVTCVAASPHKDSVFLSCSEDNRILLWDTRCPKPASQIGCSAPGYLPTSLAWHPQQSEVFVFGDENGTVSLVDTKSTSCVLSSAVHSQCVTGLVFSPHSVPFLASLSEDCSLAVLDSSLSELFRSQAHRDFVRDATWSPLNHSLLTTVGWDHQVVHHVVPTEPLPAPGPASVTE
Experiment: PRMT5 Biochemical Assay (PRMT5/MEP50 enzyme assay on peptide substrate, 3H-SAM Flashplate)
Conditions: Table D-2; read-out: Biochemical IC50
pIC50: −log10 of the molar value.
Let's look at some compounds and their measured pIC50.
measured.endpoint: pIC50

INSERT INTO measurements (compound, subject_of_test, value_reported) VALUES
  ('Cn1cc2ccc(-c3cccc(NCC(O)CN4CCc5ccccc5C4)c3)nc2n1 (centres unmarked)', 'PRMT5/MEP50 (Homo sapiens, UniProt O14744)', '> 7.00'),
  ('CN1CCN(c2ccc(-c3cccc(OCC(O)CN4CCc5ccccc5C4)c3)cn2)CC1 (centres unmarked)', 'PRMT5/MEP50 (Homo sapiens, UniProt O14744)', '6.00 to 7.00'),
  ('Cn1cnc2ccc(-c3cccc(OC[C@H](O)CN4CCc5ccccc5C4)c3)cc21', 'PRMT5/MEP50 (Homo sapiens, UniProt O14744)', '> 7.00'),
  ('CNC(=O)c1cncc(-c2cccc(OCC(O)CN3CCc4ccccc4C3)c2)c1 (centres unmarked)', 'PRMT5/MEP50 (Homo sapiens, UniProt O14744)', '5.00 to 6.00'),
  ('OC(COc1cccc(-c2cccc(F)c2F)c1)CN1CCc2ccccc2C1 (centres unmarked)', 'PRMT5/MEP50 (Homo sapiens, UniProt O14744)', '6.00 to 7.00'),
  ('Cn1cnc2ccc(-c3ccnc(NC[C@H](O)CN4CCc5ccccc5C4)c3)cc21', 'PRMT5/MEP50 (Homo sapiens, UniProt O14744)', '> 7.00'),
  ('Cn1cnc2cc(-c3cccc(OCC(O)CN4CCc5ccccc5C4)c3)ccc21 (centres unmarked)', 'PRMT5/MEP50 (Homo sapiens, UniProt O14744)', '6.00 to 7.00'),
  ('COc1ccc(Cl)cc1-c1cccc(OCC(O)CN2CCc3ccccc3C2)c1 (centres unmarked)', 'PRMT5/MEP50 (Homo sapiens, UniProt O14744)', '6.00 to 7.00'),
  ('OC(COc1ccc(C2CCCNC2)cc1)CN1CCc2ccccc2C1 (centres unmarked)', 'PRMT5/MEP50 (Homo sapiens, UniProt O14744)', '> 7.00'),
  ('O=C(c1cccc(-c2cccc(OCC(O)CN3CCc4ccccc4C3)c2)c1)N1CCOCC1 (centres unmarked)', 'PRMT5/MEP50 (Homo sapiens, UniProt O14744)', '6.00 to 7.00'),
  ('Cn1cc2ccc(-c3cccc(OCC(O)CN4CCc5ccccc5C4)c3)nc2n1 (centres unmarked)', 'PRMT5/MEP50 (Homo sapiens, UniProt O14744)', '> 7.00'),
  ('Cc1cccc2c1CCN(CC(O)COc1cccc(-c3ccc4ncn(C)c4c3)c1)C2 (centres unmarked)', 'PRMT5/MEP50 (Homo sapiens, UniProt O14744)', '5.00 to 6.00'),
  ('OC(CNc1cccc(CNC2CCCC2)c1)CN1CCc2ccccc2C1 (centres unmarked)', 'PRMT5/MEP50 (Homo sapiens, UniProt O14744)', '6.00 to 7.00'),
  ('Oc1ccc(-c2cccc(OCC(O)CN3CCc4ccccc4C3)c2)cc1 (centres unmarked)', 'PRMT5/MEP50 (Homo sapiens, UniProt O14744)', '5.00 to 6.00');
